Source: PubChem BioAssay (NCI)

Tested on: SK-MEL-28 melanoma
Assay: NCI tumour cell line growth inhibition, 48 h; in the data active means GI50 below about 0.43 µM; inactive means the rest
The categories you may choose from are 1 = active, -1 = inactive

CCOc1nc(-c2ccccc2)cc2c(O)c(C(=O)N/N=C/c3ccc(O)cc3O)[nH]c(=O)c12 | -1
CCCS(=O)(=O)Nc1ccc(F)c(C(=O)c2c[nH]c3ncc(Cl)cc23)c1F | 1

What did the test return for O=C(O)CNC(=O)C(CS)Cc1ccccc1 (stereo not drawn) ?
-1

###

Recorded TGI by entry
System: U251 CNS
Assay: NCI tumour cell line growth inhibition, 48 h
Value expressed in µM; do not type the unit.

COc1ccc(S(=O)(=O)N/N=C\c2cc([N+](=O)[O-])cc(I)c2O)c(OC)c1OC | 66

Please list TGI recorded for the compound "CC(C)(CN1CCCCC1)C(/C=C/c1ccc(Cl)c(Cl)c1)=N\NC(=O)N/N=C(/C=C/c1ccc(Cl)c(Cl)c1)C(C)(C)CN1CCCCC1"
3.13
